measured_target: T1, EGFRvIII target antigen (SPR ligand) (UniProt P00533 25-645, limits assumed)
T1 construct: also called EGFRvIII antigen
protocol_summary: SPR; antibody as analyte
quantity: koff (s⁻¹)
Report only the number, with the unit s⁻¹ understood.

Here are 3 binders together with their reported answers.
1. humanized antibody 40-2-H12 (98G2E9-VH6 + VL5) (scFv, the format in the SPR assay is not clearly stated) scFv: EVQLLESGGGLVQPGGSLKLSCAASGFTFSGYAMSWVRQTPEKGLEWVATITSGGSYTYYPDSVKGRFTISRDNAKNTLYLQMNSLRAEDTAMYYCARKDYGNYWFAYWGQGTLVTVSSGGGGSGGGGSGGGGSGGGGSDVVMTQSPLSLPVTLGDPASISCRSSQSLVHSDGNTYLHWYLQRPGQSPRLLIYKVSNRFSGVPDRFSGSGSGTDFTLKISRVEAEDVGVYFCSQTTQVPWTFGGGTKLEIK	0.00266
2. chimeric-VH + VL of clone 20-2-40-2 (98G2E9) (antibody, V domains shown, also called clone #40-2) VH: EVLLVESGGGLVKPGGSLKLSCAASGFTFSGYAMSWVRQTPEKRLEWVATITSGGSYTYYPDSVKGRFTISRDNAKNTLYLQMSSLRSEDTAMYYCARKDYGNYWFAYWGQGTLVTVSA VL: DVVMTQTPLSLPVSLGDQASISCRSSQSLVHSDGNTYLHWYLQKPGQSPKLLIYKVSNRFSGVPDRFSGSGSGTDFTLKISRVEAEDLGVYFCSQTTQVPWTFGGGTKLEIK	0.00181
3. humanized antibody 40-2-H13 (98G2E9-VH6 + VL6) (scFv, the format in the SPR assay is not clearly stated) scFv: EVQLLESGGGLVQPGGSLKLSCAASGFTFSGYAMSWVRQTPEKGLEWVATITSGGSYTYYPDSVKGRFTISRDNAKNTLYLQMNSLRAEDTAMYYCARKDYGNYWFAYWGQGTLVTVSSGGGGSGGGGSGGGGSGGGGSDVVMTQSPLSLPVTLGQQASISCRSSQSLVHSDGNTYLHWYLQKPGQSPKLLIYKVSNRFSGVPDRFSGSGSGTDFTLKISRVEAEDVGVYFCSQTTQVPWTFGGGTKLEIK	0.00301

get_value(item= humanized antibody 40-2-H11 (98G2E9-VH5 + VL7) (scFv, the format in the SPR assay is not clearly stated) scFv: EVQLLESGGGLVQPGGSLKLSCAASGFTFSGYAMSWVRQTPGKGLEWVATITSGGSYTYYPDSVKGRFTISRDNSKNTLYLQMNSLRAEDTAMYYCARKDYGNYWFAYWGQGTLVTVSSGGGGSGGGGSGGGGSGGGGSDVVMTQSPLSLPVTLGDQASISCRSSQSLVHSDGNTYLHWYLQKPGQSPKLLIYKVSNRFSGVPDRFSGSGSGTDFTLKISRVEAEDVGVYFCSQTTQVPWTFGGGTKLEIK , readout=koff) returns 0.00343
